B1: Lysozyme C, P61626 (parent)
chain: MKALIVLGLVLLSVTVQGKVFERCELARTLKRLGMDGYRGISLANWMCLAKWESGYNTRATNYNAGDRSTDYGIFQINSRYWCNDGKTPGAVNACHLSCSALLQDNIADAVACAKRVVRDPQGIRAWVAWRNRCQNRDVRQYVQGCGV

- Variants of: B1
- experimentalConditions: Homo sapiens; pH 2.85; Thermal; DSC; glycine-HCl 0.05 M; reversible: yes; structure 1LZ1; whole UniProt chain shown
Give measured unfolding enthalpy (calorimetric) for each item. Keep answers brief.
Give bare numbers, in kcal/mol.

Examples with their reported unfolding enthalpy (calorimetric) follow.
| var | unfolding enthalpy (calorimetric) / kcal/mol |
| --- | --- |
| T70V | 105 |
| T88A | 103 |
| T58A | 107 |
| T58V | 110 |
| T70A | 105 |

Then this variant:
Entry under review: T88V . Reported unfolding enthalpy (calorimetric)?
112

Where do the numbers come from? From FireProtDB (doi:10.1021/bi9910169).
